# TARGET_OR_SYSTEM: terminal deoxynucleotidyltransferase (TdT) (human, UniProt P04053 1-509)
# Sequence (P04053 whole entry): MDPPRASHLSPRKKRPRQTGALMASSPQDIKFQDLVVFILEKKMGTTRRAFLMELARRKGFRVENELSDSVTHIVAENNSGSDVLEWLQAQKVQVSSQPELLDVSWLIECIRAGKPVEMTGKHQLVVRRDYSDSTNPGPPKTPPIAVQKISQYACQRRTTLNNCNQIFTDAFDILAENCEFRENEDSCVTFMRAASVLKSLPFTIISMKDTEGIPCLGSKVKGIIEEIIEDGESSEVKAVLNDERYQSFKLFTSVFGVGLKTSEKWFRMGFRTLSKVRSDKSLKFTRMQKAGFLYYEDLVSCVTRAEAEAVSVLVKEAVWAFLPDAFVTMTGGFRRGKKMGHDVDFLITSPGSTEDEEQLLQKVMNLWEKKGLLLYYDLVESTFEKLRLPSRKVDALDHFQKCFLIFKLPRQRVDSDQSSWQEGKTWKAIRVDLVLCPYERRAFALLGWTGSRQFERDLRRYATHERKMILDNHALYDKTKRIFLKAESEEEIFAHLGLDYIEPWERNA
# ASSAY_INFO: MST; Co2+; Kd treated by authors as estimate; MST with 5.0 mM Mg2+ (Mn2+ or Co2+ in other runs, concentration not given); buffer, salt, pH and temperature not in the material
# CONDITIONS: label: 5'-FAM; single strand
OBSERVED_PROPERTY: Kd (nM)
Give a bare numeral; the unit nM is implied.

Task: Reported Kd for GGAAGA (ssDNA) [DNA primer FAM-GGAAGA] : what is it?
Output: 700
